Would you mind telling me the reported viability of each entry?
Experiment: viability of HCT116 without oncogenic beta-catenin – human colon tumor cells, pilot screen (AID 823);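 note: 0% = wells killed by 20 µM Hyamine and 100% = untreated DMSO cell wells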
Conditions: HCT116 beta-catenin knockout viability, CellTiter-Glo, 60 h; at 10 µM; active compounds read low
Inconclusive results are not listed.
Number in %, nothing else.

Given the compound `Cc1cccc(OCC(=O)Nc2ccc(N3CCCC3)cc2)c1C` , write its reported viability. 72.4

Please supply the value of reported viability for the item `CC1CCN(c2nc(-c3ccccc3)c(C#N)c(=O)[nH]2)CC1` 101

Indicate its recorded viability; the compound in question is COc1cccc(C2C3=C(N=C4SCC(=O)N42)c2ccccc2CC3)c1OC (centres undefined) 65.8

Let me know recorded viability for CC1CCCCN1S(=O)(=O)c1ccc(NC(=O)c2cccs2)cc1 (centres undefined) , thanks. 76.2

Please list viability recorded for the compound `CCOC(=O)N1CCN(C(=O)CSc2nnc(-c3cccc(Cl)c3)o2)CC1` 105

Tell me viability reported for `Clc1cccc(Nc2ncnc3c2cnn3-c2ccccc2)c1` 82.5

Retrieve viability measured for CCC(Oc1ccccc1)C(=O)Nc1ccccc1OC (centres undefined) and print it. 90

Identify measured viability associated with `CC(C)(C)NC(=O)CSc1nc(O)cc(=O)n1-c1ccccc1F` 95.5

Identify viability associated with the compound `O=C1c2ccccc2C(=O)N1C/C=C/CN1C(=O)c2ccccc2C1=O` 90.3

Please give the documented viability of COc1cc(C(=O)N2c3ccccc3CC2C)cc(OC)c1OC (centres undefined) 87.4

Let me know recorded viability for `O=C(NCCc1c[nH]c2ccccc12)c1cnc2n(c1=O)CCS2` , thanks. 96.6

Supply reported viability belonging to this compound: `CN1CCN(c2nc3c(c(=O)[nH]c(=O)n3C)n2CCSc2nc3ccccc3s2)CC1` 98.3

Give reported viability value for O=C(NCCN1C(=O)C2C3C=CC(C3)C2C1=O)N1CCCCC1 (centres undefined) 102

Answer with reported viability of `CN(CC(=O)N1CCCCC1)S(=O)(=O)c1cccc2cccnc12` 94.6

Given the compound `Cc1ccc(SCC(=O)NCCN2C(=O)CSC2=O)c(C)c1` , write its reported viability. 111

Please give measured viability of the following entry: `Oc1cc(Cc2ccccc2)cnc1CN1CCCCC1` 95.6

Look up and report measured viability for this entry: CC1=C(C(=O)OC(C)C)C(c2ccccn2)n2ncnc2N1 (centres undefined) 106

For the compound CN(C)CCCN1C(=O)c2oc3ccc(Cl)cc3c(=O)c2C1c1cccnc1 (centres undefined) , report viability. 93.5

Tell me measured viability for `O=C(C1CCN(c2nnc(-n3cccc3)s2)CC1)N1CCc2ccccc2C1` please. 97

Provide one value: measured viability of `Cc1cc2ncc(-c3ccc(Cl)cc3)c(N)n2n1` 88

Return reported viability. Input compound: `O=C1C(C=NCCCN2CCOCC2)=C(O)c2ccccc21` 98.6

Quick one: give measured viability for `CCCCOC(=O)Nc1nc2ccc(OC)cc2s1` 96.3

Answer with the recorded viability for the compound listed here: CC1Cc2nc(SCC(=O)OCc3ccccc3)n(C)c(=O)c2S1 (centres undefined) 102

Tell me its viability given `CCCS(=O)(=O)N1CCN(C(=O)c2cccnc2)CC1` as the entry. 101

----------
Field: growth inhibition. Provide a value for each of the molecules that follow.
Experiment: S. cerevisiae growth inhibition in restrictive medium, OD615, pilot screen, restrictive growth control, yeast lifespan reduction project (AID 706);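 note: modified DeaD lifespan yeast strain shifted to restrictive glucose medium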
Conditions: OD615, 48 h, at 10 µM, active compounds read high
Calls of active or inactive are those of the source.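 Rule for the calls: active = growth inhibition above a set limit, 3 SD over mean compound inhibition, in both replicates (cut at about 43% in these data); inconclusive = above the limit in only one replicate; inactive = at or below the limit in both replicates.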

State, in one line, measured growth inhibition of COC(=O)c1cn(NC(=O)C2CCCO2)c(=O)c2ccccc12 (configuration not stated) -23.6% (inactive)

Quote growth inhibition reported for CCOC(=O)C(CC)n1nc(C)n2c(cc3sccc32)c1=O (configuration not stated) please. 1.69% (inactive)

Note growth inhibition for the molecule shown: `CCOC(=O)c1ccccc1NC(=O)c1ccc2c(=O)n3c(nc2c1)CCCCC3` -0.78% (inactive)

Give reported growth inhibition value for `N#Cc1nc(-c2ccc(F)cc2)oc1NCCN1CCOCC1` -8.75% (inactive)

Let me know recorded growth inhibition for CC1CCCCN1S(=O)(=O)c1cccc2cccnc12 (configuration not stated) , thanks. 16.5% (inactive)

Please report growth inhibition for the following molecule: `Cc1nc2ccc(C(=O)c3ccccc3)cc2[nH]1` 2.11% (inactive)

Fill in reported growth inhibition for this entry: `CCSc1oc(-c2ccco2)nc1S(=O)(=O)c1ccccc1` 11.4% (inactive)

For the molecule CCC(C)NC(=O)c1cc(CC(C)C)on1 (configuration not stated) , give its measured growth inhibition value. -0.685% (inactive)

State, in one line, measured growth inhibition of `CCN(Cc1ccccc1)C(=O)CSc1nc(C)cc(C)c1C#N` -2.79% (inactive)

Complete the entry with growth inhibition for `CCCc1cc(C(=O)Nc2sc(C(C)=O)c(C)c2C(=O)OCC)no1` -30.5% (inactive)

Give reported growth inhibition value for `CSc1ccccc1NC(=O)c1cnc2n(c1=O)CCS2` 3.57% (inactive)

Give the reported value of growth inhibition for this record: `Cc1ccc(-c2nc3cc(NC(=O)C(C)C)ccc3o2)cc1` -21.9% (inactive)

----------
Provide the recorded RAM network inhibition for the entries that follow.
Experiment: RAM signaling pathway blockade in yeast – S. cerevisiae, Pdr1DBD-CYC8 efflux-inhibited sensitized strain, primary screen (AID 1298);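 note: 0% = DMSO untreated cells without growth and 100% = 10 µM 1-NA-PP1 full growth; higher means more yeast growth rescued from 5-FOA killing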
Details: S. cerevisiae cbk1-as DSE1-URA3 strain, 5-FOA growth OD615, 2 d; at 50 µM; active compounds read high
Please reply with the bare figure in % and do not write the unit itself.

Identify the reported RAM network inhibition for the following entry. `CCOc1ccc(S(=O)(=O)n2ccnc2)c2ccccc12` 2.78

Look up and state reported RAM network inhibition for O=C1c2ccccc2C(Nc2ccc(-c3nc4ccccc4[nH]3)cc2)N1Cc1ccco1 (stereo unspecified) 2.26

Input `COc1ccc(Cl)cc1S(=O)(=O)n1ccnc1C(C)C` , output reported RAM network inhibition. 2.15

Given the compound `CCc1cccc(C)c1NC(=O)CN1C(=O)c2ccccc2S1(=O)=O` , write its reported RAM network inhibition. 4.79

Return value of RAM network inhibition for input `O=C(CS(=O)(=O)c1cn(Cc2cccc(F)c2)c2ccccc12)N1CCOCC1` , no commentary. 6

Complete the entry with RAM network inhibition for `CCN(CC)C(=O)Oc1ccccc1NC(C)=O` -0.6

Give the reported RAM network inhibition for this compound. Oc1c(C(c2ccccc2)N2CCc3ccccc3C2)sc2ncnn12 (stereo unspecified) 4.48

Kindly indicate its recorded RAM network inhibition. Item: COc1ccc(C2C(C(=O)Nc3cccnc3)=C(C)Nc3nc(-c4cccs4)nn32)cc1OC (stereo unspecified) -1.11

Retrieve RAM network inhibition measured for `O=C(CSc1nc2ccccc2o1)NCc1ccc2c(c1)OCO2` and print it. 2.68

For the compound `CC(=O)Nc1cccc(Oc2nc(C)cc(C)c2C#N)c1` , give its measured RAM network inhibition value. 0.78

Check the records and state RAM network inhibition for CN(C(=O)c1ccccc1C(=O)c1ccccc1)C1CCS(=O)(=O)C1 (stereo unspecified) 1.85

Look up and report measured RAM network inhibition for this entry: COC(=O)CN1C(=O)C(O)(CC(=O)c2ccc(Cl)cc2)c2ccccc21 (stereo unspecified) 0.35

Please report the measured RAM network inhibition for CC(=O)N1c2c(cc(Br)cc2S(=O)(=O)NCC2COc3ccccc3O2)CC1C (stereo unspecified) 0.61

For the compound `O=C(COc1ccc(=O)n(-c2ccccc2)n1)Nc1ccccc1` , give its reported RAM network inhibition. 1.04

Tell me its RAM network inhibition given `Cc1ccc2oc(=O)c3cnn(CC(=O)NCCN4CCOCC4)c3c2c1` as the entry. 5.06

Note RAM network inhibition for the compound shown: COc1ccc(NC(=O)C2CCCCN2S(=O)(=O)c2ccc(F)cc2)cc1 (stereo unspecified) 5.45

Return reported RAM network inhibition. Input compound: `CCOC(=O)N1CCN(C(=O)CN(c2cc(Cl)ccc2OC)S(=O)(=O)c2ccccc2)CC1` 2.07

Using the record for Cc1ccnc(NC(=O)C2CCCN(S(=O)(=O)c3cnc[nH]3)C2)c1 (stereo unspecified) , state its measured RAM network inhibition. 3.67

For the compound `COc1ccccc1NC(=O)CSc1nnc(Cc2cccn2C)n1-c1ccc(F)cc1` , report RAM network inhibition. 2.25

Tell me measured RAM network inhibition for `COC(=O)c1ccsc1NC(=O)CN1C(=O)CCC1=O` please. 0.15

Fill in RAM network inhibition for record `Cc1cc(C)c2c(=O)n(CC(=O)N3CCC(Cc4ccccc4)CC3)sc2n1` 3.67

Identify the reported RAM network inhibition for the following entry. `Cc1ccc(C(=O)N2CCN(c3ccccc3)CC2)cc1C` 2.03

Look up and state reported RAM network inhibition for COC(=O)C1=C(N)OC2=C(C(=O)CCC2)C1c1cccs1 (stereo unspecified) 4.64

Supply reported RAM network inhibition belonging to this compound: `Cc1nnc(SCC(=O)Nc2ccc3c4c(cccc24)CC3)n1C` 3.77

Recall and state the measured RAM network inhibition for `O=C(Nc1ccc2c(c1)OCCO2)C1CCN(C(=O)c2ccc(F)cc2)CC1` . 6.28

Consider the compound `CCOC(=O)CSc1nnc(CSc2nc(N)c3c(C)c(C)sc3n2)n1-c1ccccc1` . State its measured RAM network inhibition. 5.21

Provide only the value of recorded RAM network inhibition for CCc1ccccc1N1CC23C=CC(O2)C(C(=O)O)C3C1=O (stereo unspecified) 1.2

Name the recorded RAM network inhibition of the item `Cc1ccc(C)n1-c1ccc(N2CCOCC2)cc1` in your answer. 7.34

Please indicate RAM network inhibition recorded for `O=C(c1ccc(CS(=O)(=O)c2c(Cl)cccc2Cl)o1)N1CCCC1` -0.84

Identify measured RAM network inhibition associated with `O=C(Nc1nnc(-c2ccc(Cl)cc2)o1)C1CCCCC1` 1.36

# return recorded RAM network inhibition for entry COc1ccc(C2CC(c3ccc(Cl)cc3Cl)Nc3nc(N)nn32)cc1 (stereo unspecified) 8.01

Consider the compound COc1ccc(C2N(c3ccc(OC)cc3)C(=O)C3CCCN32)cc1 (stereo unspecified) . State its measured RAM network inhibition. -0.16

// Input: CCOCCCNC(=O)c1ccc2c(c1)N(Cc1ccccc1)C(=O)CS2=O (stereo unspecified) . Output its RAM network inhibition only. -0.72

Read off the recorded RAM network inhibition for `Cc1nc(CC(=O)c2c(C)cc(O)cc2O)cs1` 1.48

State, in one line, measured RAM network inhibition of `Cc1ccc(-n2nnc3c(=O)n(CC(=O)OCc4ccccc4)cnc32)cc1` 6.18

Return the recorded RAM network inhibition value; entry: `Cc1cccc(OCc2nc(C#N)c(NCCN(C)C)o2)c1` 3.81

Quote RAM network inhibition reported for `FC(F)(F)c1nc(N2CCN(c3ccccc3)CC2)nc2c1CCCCC2` please. 9.39

For `CC(=O)Nn1cc2c(c1-c1ccccc1)c(=O)n(C)c(=O)n2C` , write its RAM network inhibition. 3.01

Give the reported RAM network inhibition for this compound. `CCCCNC(=O)Nc1ccnn1C1CCCCC1` -2.79

Let me know recorded RAM network inhibition for `CN(C1CCCCC1)S(=O)(=O)c1ccc(S(=O)(=O)N2CCN(CCC#N)CC2)cc1` , thanks. 1.41

Look up and report measured RAM network inhibition for this entry: `Fc1cccc(Nc2ncnc3c2cnn3-c2ccccc2)c1` 0.26

Identify measured RAM network inhibition corresponding to `COc1ccc(OC)c(NC(=O)CSc2nnc(Cc3cccn3C)n2-c2ccc(F)cc2)c1` 2.89

State its RAM network inhibition for this compound: COc1cc(OC)c2c(c1)OC(c1ccc(OC)c(OC)c1)C(O)C2=O (stereo unspecified) 2.25

Return RAM network inhibition (reported value) for this compound: CCOC(=O)C1C(C)N=C2SCC(=O)N2C1c1cccc(Br)c1 (stereo unspecified) 3.99

For the compound `COCCN(CCOC)Cc1c(C)[nH]c2ccccc2c1=O` , report RAM network inhibition. 3.31

In one line, give reported RAM network inhibition of the entry `COC(=O)COC(=O)c1ccc(O)cc1` . 2.15
